- System: SK-MEL-2
- Assay text: NCI tumour cell line growth inhibition, 48 h
Calls of active or inactive are those of the source. Cut-off read from the data, not from the text of the source: active = GI50 up to about 1.1 µM and inactive = higher.
Hi there, I'd appreciate the recorded GI50 for every entry that follows.

Worked examples follow.
compound="CCCCC(C#N)(OP1(=O)OC(c2ccccc2)C(C)N1C)c1ccccc1 (stereo unspecified)" observed="19.2 µM (inactive)"
compound=CCOC(=O)NC(C(F)(F)F)(C(F)(F)F)P(=O)(OC(C)C)OC(C)C observed="> 100 µM (inactive)"
compound=Clc1cc(-c2ccccc2)nc(Nc2nc3ccccc3[nH]2)n1 observed="> 10 µM (inactive)"
compound="C[C@@H]1OC(=O)C[C@H]2CC(=O)N(CCC3CN(C(=O)c4ccccc4)c4ccccc43)C[C@@H]21 (stereo partly specified)" observed="> 100 µM (inactive)"
compound=Cc1ccc(S(=O)(=O)NC(=O)NCCc2c[nH]cn2)cc1 observed="> 100 µM (inactive)"
compound=O=C(CCC/C(CC(=O)c1ccc(Br)cc1)=N\O)Nc1ccccc1 observed="> 100 µM (inactive)"

Please report GI50 for every entry that follows.
1. CN1OC(=O)N(C)C1c1ccccc1 (stereo unspecified)
2. CC#CCC1CCC(OCC)=CC1=O (stereo unspecified)
3. Cc1ccc(-n2c(=O)c3nn4c(=O)n(-c5ccc(C)cc5)c(=O)c4nn3c2=O)cc1

Found:
> 100 µM (inactive)
> 100 µM (inactive)
> 100 µM (inactive)

---

- Test system: HCT-116
- Assay text: NCI tumour cell line growth inhibition, 48 h
The source made the active and inactive calls. Cut-off read from the data, not from the text of the source: active = GI50 up to about 1.1 µM and inactive = higher.
Hi there, I'd appreciate the recorded GI50 for every entry that follows.

Worked examples follow.
compound=Oc1cccc(-c2ccc3c4c2O[C@H]2c5[nH]c6ccccc6c5C[C@@]5(O)[C@@H](C3)N(CC3CC3)CC[C@]425)c1 observed="1.82 µM (inactive)"
compound=COc1ccc(C2=Nn3c(nc4sc(C)c(C)c4c3=O)SC2)cc1 observed="> 100 µM (inactive)"
compound=C[P+](C)(C)c1ccccc1 observed="> 100 µM (inactive)"
compound=O=[N+]([O-])c1cccc(-c2oc(/C=N/c3ccccc3)c([N+](=O)[O-])c2-c2cccc([N+](=O)[O-])c2)c1 observed="> 100 µM (inactive)"
compound=O=c1[nH]nc(-c2ccccc2)n1/N=C/c1c(O)ccc2ccccc12 observed="30 µM (inactive)"
compound="O=C1CSC2=NC3=C(COC/C3=C\\c3ccc(F)cc3)C(c3ccc(F)cc3)N12 (stereo not drawn)" observed="35.9 µM (inactive)"
compound=COC(=O)N/N=C/c1oc(-c2cccc([N+](=O)[O-])c2)c(-c2cccc([N+](=O)[O-])c2)c1[N+](=O)[O-] observed="> 100 µM (inactive)"

For record Cc1ccc(C(=O)CC2=Nc3nnc(CCCCCCCc4nnc5n4C(=O)C(CC(=O)c4ccc(C)cc4)=N5)n3C2=O)cc1 the listed GI50 is > 100 µM (inactive)

---

- System: HOP-18
- Assay text: NCI tumour cell line growth inhibition, 48 h
The source made the active and inactive calls. Rule as the data show it: active = GI50 up to about 1.1 µM and inactive = higher.
Measurement kind: GI50

Worked examples follow.
molecule=CC1=C(C(=O)NCc2ccccc2)C(c2ccccc2[N+](=O)[O-])C(C(=O)NCc2ccccc2)=C(C)N1 study_system=HOP-18 measurement_kind=GI50 observed="20.3 µM (inactive)"
molecule=CN(C)CCC(/C=C/c1ccccc1)=N\Nc1c(F)c(F)c(F)c(F)c1F study_system=HOP-18 measurement_kind=GI50 observed="44.1 µM (inactive)"
molecule="CCOC(=O)C(/C(=N\\NC(=O)OC)C(=O)Nc1cc(OC)ccc1OC)c1cnc2ccccc2n1 (stereo not drawn)" study_system=HOP-18 measurement_kind=GI50 observed="85.9 µM (inactive)"

Please report GI50 for every entry that follows.
1. Cc1ccc2c(c1CCCC(C)(C)O)C(=O)C(O)=C(C(C)C)C2=O
2. C[P+](C)(C)c1ccccc1
3. OC1OC2COC(c3ccccc3)OC2C(O)C1O (stereo not drawn)
4. COc1cc(C2C3=C(CCC3=O)Oc3cc4c(cc32)OCO4)cc(OC)c1OC (stereo not drawn)
5. O=CC1CCCc2ccccc21 (stereo not drawn)

Found:
1: > 100 µM (inactive); 2: > 100 µM (inactive); 3: > 100 µM (inactive); 4: > 100 µM (inactive); 5: > 100 µM (inactive)

Please report GI50 for every entry that follows.
1. CC(C)(C)c1ccc2c(c1)S(=O)(=O)Nc1cccc(c1)NS(=O)(=O)c1cc(C(C)(C)C)ccc1OCCOCCO2
2. O=C(CCC/C(CC(=O)c1ccc(Br)cc1)=N\O)Nc1ccccc1

Found:
["> 100 µM (inactive)", "> 100 µM (inactive)"]

Please report GI50 for every entry that follows.
1. O=P1(O)c2ccccc2Nc2cc(C(F)(F)F)ccc21
2. COc1ccc2c3ccc4c(c3n(C)c2c1)C(=O)C=CC4=O

Found:
1. > 100 µM (inactive)
2. 36.7 µM (inactive)

For record O=C1CCC(=O)c2cc(Br)ccc2N1 the listed GI50 is > 100 µM (inactive)

---

Hi there, I'd appreciate the recorded GI50 for every entry that follows.
- System: ACHN
- Assay text: NCI tumour cell line growth inhibition, 48 h
Activity calls are given as the source filed them. Cut-off read from the data, not from the text of the source: active = GI50 up to about 1.1 µM and inactive = higher.

compound=[O-][N+]1(CC[N+]2([O-])CCCCC2)CCCCC1 observed="> 100 µM (inactive)"
compound=O=C(CCC/C(CC(=O)c1ccc(Br)cc1)=N\O)Nc1ccccc1 observed="96.6 µM (inactive)"
compound=Nc1ccc(-c2cssc2=S)cc1 observed="38.1 µM (inactive)"
compound=COc1ccc(/C=C/COC(C)=O)cc1OC observed="> 100 µM (inactive)"
compound="CCCCOC(=O)C(=O)C(CC(CC)C(=O)c1ccccc1)C(=O)C=C(C)C (configuration not stated)" observed="> 100 µM (inactive)"

Please report GI50 for every entry that follows.
1. COc1ccc(S(=O)(=O)N/N=C(\C)CN2C(=O)c3ccccc3C2=O)cc1
2. CCCCCCCCCCCC(=O)OC[C@H](C[As](=O)(O)O)OC(=O)CCCCCCCCCCC
3. O=C1C(Cl)C(c2cc3cc(Br)ccc3nc2Cl)N1c1c(Cl)cccc1Cl (configuration not stated)
4. CC(=O)Nc1cc(/C=C\C(=O)N2CC(CCl)c3c2cc(N)c2ccccc32)n(C)n1 (configuration not stated)
5. CC1OC2/C=C\CC(O)C(C)(C)C3CCC(C)C4(O3)O[B-]35OC(C(=O)OC1C2)C1(OC(CCC1C)C(C)(C)C(O)C/C=C\C1CC(OC(=O)C4O3)C(C)O1)O5 (configuration not stated)
6. COc1ccc2c3ccc4c(c3n(C)c2c1)C(=O)C=CC4=O

Found:
1. > 100 µM (inactive)
2. 2.79 µM (inactive)
3. 15.9 µM (inactive)
4. < 0.001 µM (active)
5. 3.45 µM (inactive)
6. 20.7 µM (inactive)

Please report GI50 for every entry that follows.
1. C=C1C(=O)OC2C1CCC(C)C1C=CC(=O)C12C (configuration not stated)
2. COC1=CC2(C=CC1=O)CCNC1=C2C(=O)c2nc[nH]c2C1=O (configuration not stated)
3. COc1ccc(/C=N/NC(=O)c2ccc(O)c(CN(C)C)c2)cc1
4. O=S(=O)(O)CCSSCCS(=O)(=O)O
5. CCC1(O)CC(CCN(Cc2ccccc2)C(=O)OCc2ccccc2)C(OCc2ccccc2)C1O (configuration not stated)
6. CN(C)CCC(/C=C/c1ccccc1)=N\Nc1c(F)c(F)c(F)c(F)c1F
7. N#Cc1ccc(OCc2nc3cc(C(F)(F)F)ccc3nc2-c2ccccc2)cc1

Found:
1.73 µM (inactive)
> 100 µM (inactive)
> 100 µM (inactive)
> 1000 µM (inactive)
17 µM (inactive)
49.1 µM (inactive)
> 100 µM (inactive)

Please report GI50 for every entry that follows.
1. CCOC(=O)c1nc2ccccc2nc1Nc1cc(OC)c(OC)c(OC)c1
2. CCOC(=O)[C@H]1Nc2ccc(Cl)cc2[C@H]2OCC[C@@H]12

Found:
> 100 µM (inactive)
> 100 µM (inactive)

Please report GI50 for every entry that follows.
1. Clc1cc(Br)c2c3c(c(Br)cc(Cl)c13)C(Br)=C2Br
2. C=C1C(O)CC[C@]2(C)C1C1OC(C)(C)O[C@]13CC(=O)C(C)=C([C@H]1OC(C)(C)OC12)C3(C)C (some centres not stated)
3. O=C1CCC2(CC1)Cc1ccccc1C2O (configuration not stated)
4. COc1cc2c(cc1OC)-c1[nH]c3ccc([N+](=O)[O-])cc3c1CC(=O)N2
5. COc1cccc(-n2nnc3c(N)nc(N)nc32)c1
6. O=C(c1ccc(O)cc1O)C1C(c2ccc(O)cc2)OC(c2ccc(O)cc2)C1C(=O)c1ccc(O)cc1O (configuration not stated)

Found:
["19.7 µM (inactive)", "92 µM (inactive)", "> 100 µM (inactive)", "2.32 µM (inactive)", "53.7 µM (inactive)", "22.2 µM (inactive)"]

Please report GI50 for every entry that follows.
1. OC1OC2COC(c3ccccc3)OC2C(O)C1O (configuration not stated)
2. Nc1ccc2c(c1)S(=O)(=O)c1cc(O)ccc1O2
3. CCOC(=O)C(/C(=N\NC(=O)OC)C(=O)Nc1cc(OC)ccc1OC)c1cnc2ccccc2n1 (configuration not stated)
4. O=C1CCC(=O)c2cc(Br)ccc2N1

Found:
["> 100 µM (inactive)", "> 100 µM (inactive)", "> 100 µM (inactive)", "> 100 µM (inactive)"]

Please report GI50 for every entry that follows.
1. Clc1cc(-c2ccccc2)nc(Nc2nc3ccccc3[nH]2)n1
2. O=C(O)C1C2OC(C(Br)C2Br)C1C(=O)O (configuration not stated)

Found:
1: 17.5 µM (inactive); 2: > 100 µM (inactive)
